- system: full-length B-Catenin (Uniprot ID P35222) (Homo sapiens, UniProt P35222)
- Construct: 65 nM full-length B-Catenin (Uniprot ID P35222)
- Sequence (P35222 whole entry): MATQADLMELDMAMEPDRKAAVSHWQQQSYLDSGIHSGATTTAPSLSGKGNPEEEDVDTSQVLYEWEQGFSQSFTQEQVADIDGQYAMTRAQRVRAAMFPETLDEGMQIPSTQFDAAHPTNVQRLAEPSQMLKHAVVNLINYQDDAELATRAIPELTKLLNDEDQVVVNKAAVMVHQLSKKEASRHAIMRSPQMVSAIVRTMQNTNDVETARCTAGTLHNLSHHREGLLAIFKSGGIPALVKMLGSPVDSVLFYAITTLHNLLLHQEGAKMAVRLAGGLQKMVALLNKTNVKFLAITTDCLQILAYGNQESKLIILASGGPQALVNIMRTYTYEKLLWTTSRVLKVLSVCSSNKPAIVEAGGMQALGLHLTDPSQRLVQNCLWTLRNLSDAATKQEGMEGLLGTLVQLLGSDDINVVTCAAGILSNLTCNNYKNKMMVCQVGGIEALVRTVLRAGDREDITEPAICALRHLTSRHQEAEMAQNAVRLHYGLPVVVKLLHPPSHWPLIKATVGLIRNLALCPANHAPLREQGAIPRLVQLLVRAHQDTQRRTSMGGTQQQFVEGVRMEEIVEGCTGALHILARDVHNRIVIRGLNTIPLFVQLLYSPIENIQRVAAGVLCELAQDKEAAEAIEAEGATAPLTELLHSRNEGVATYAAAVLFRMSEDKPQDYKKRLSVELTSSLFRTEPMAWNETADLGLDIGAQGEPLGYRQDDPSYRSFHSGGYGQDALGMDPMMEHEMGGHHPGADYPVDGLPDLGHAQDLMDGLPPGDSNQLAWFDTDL
- assayProcedure: Alphascreen binding assay (beta-catenin / biotin-TCF4 10-53)
Each record here notes measured EC50.
Give just the number in nM; leave the unit off.

Consider the reported EC50 for these compounds:
{"compound": "CC(=O)N1CCC[C@]12CC=CCCCC1(CCCC=CCOC(=O)N(C)CCC[C@@](C)(C(=O)N[C@@H](Cc3ccccc3)C(=O)N[C@@H](Cc3c[nH]c4ccccc34)C(=O)N[C@@H](CCC(N)=O)C(N)=O)NC(=O)[C@H](C(C)C)NC(=O)[C@H](Cc3ccccc3)NC(=O)[C@H](C)NC(=O)[C@H](C)NC(=O)[C@H](CC(=O)O)NC(=O)[C@H](CC(=O)O)NC1=O)NC(=O)[C@H](C)NC(=O)[C@H](CC(=O)O)NC2=O (stereo partly shown)", "measure": "EC50", "unitOfMeasure": "nM", "valueObserved": 1140}
{"compound": "CC(=O)N1CCC[C@]12CC=CCCCC1(CCCC=CCCCCCC[C@@](C)(C(=O)N[C@@H](Cc3ccccc3)C(=O)N[C@@H](Cc3c[nH]c4ccccc34)C(=O)N[C@@H](C)C(N)=O)NC(=O)[C@H](CCC(N)=O)NC(=O)[C@H](Cc3ccccc3)NC(=O)[C@H](C)NC(=O)[C@H](C)NC(=O)[C@H](CC(=O)O)NC(=O)[C@H](CC(=O)O)NC1=O)NC(=O)[C@H](C)NC(=O)[C@H](CC(=O)O)NC2=O (stereo partly shown)", "measure": "EC50", "unitOfMeasure": "nM", "valueObserved": 136}
{"compound": "CC(=O)N1CCC[C@]12CC=CCCCC1(CCCC=CCCCCCC[C@@](C)(C(=O)N[C@@H](CC(=O)O)C(=O)N[C@@H](Cc3c[nH]c4ccccc34)C(=O)N[C@@H](CCC(N)=O)C(N)=O)NC(=O)[C@H](C(C)C)NC(=O)[C@H](Cc3ccccc3)NC(=O)[C@H](C)NC(=O)[C@H](C)NC(=O)[C@H](CC(=O)O)NC(=O)[C@H](CC(=O)O)NC1=O)NC(=O)[C@H](C)NC(=O)[C@H](CC(=O)O)NC2=O (stereo partly shown)", "measure": "EC50", "unitOfMeasure": "nM", "valueObserved": 9540}
{"compound": "CC(=O)N1CCC[C@]12CC=CCCCC1(CCCC=CCCCCCC[C@@](C)(C(=O)N[C@@H](Cc3ccccc3)C(=O)N[C@@H](Cc3c[nH]c4ccccc34)C(=O)N[C@@H](CCC(N)=O)C(N)=O)NC(=O)[C@H](C(C)C)NC(=O)[C@H](Cc3ccc(C(F)(F)F)cc3)NC(=O)[C@H](C)NC(=O)[C@H](C)NC(=O)[C@H](CC(=O)O)NC(=O)[C@H](CC(=O)O)NC1=O)NC(=O)[C@H](C)NC(=O)[C@H](CC(=O)O)NC2=O (stereo partly shown) [I-241]", "measure": "EC50", "unitOfMeasure": "nM", "valueObserved": 3470}
{"compound": "CC[C@H](C)[C@@H]1NC(=O)[C@H](CC(=O)O)NC(=O)[C@]2(CC=CCCCC3(CCCC=CCCCCCC[C@@](C)(C(=O)N[C@@H](Cc4ccccc4)C(=O)N[C@@H](Cc4c[nH]c5ccccc45)C(N)=O)NC(=O)[C@H](CCC(N)=O)NC(=O)[C@H](Cc4ccccc4)NC(=O)[C@H](C)NC(=O)[C@H](C)NC(=O)[C@H](CCC(=O)O)NC(=O)[C@H](CC(=O)O)NC3=O)NC1=O)CCCN2C(C)=O (stereo partly shown) [I-192]", "measure": "EC50", "unitOfMeasure": "nM", "valueObserved": 240}
{"compound": "CC(=O)N1CCC[C@]12CC=CCCCC1(CCCC=CCCCCCC[C@@](C)(C(=O)N[C@@H](Cc3ccccc3)C(=O)N[C@@H](Cc3c[nH]c4ccccc34)C(=O)N[C@@H](CCC(N)=O)C(N)=O)NC(=O)[C@H](C(C)C)NC(=O)[C@H](C)NC(=O)[C@H](C)NC(=O)[C@H](C)NC(=O)[C@H](CC(=O)O)NC(=O)[C@H](CC(=O)O)NC1=O)NC(=O)[C@H](C)NC(=O)[C@H](CC(=O)O)NC2=O (stereo partly shown) [I-353]", "measure": "EC50", "unitOfMeasure": "nM", "valueObserved": 9290}

Reported EC50 for CC[C@H](C)[C@H](NC(=O)[C@H](CC(=O)O)NC(=O)[C@H](C)NC(C)=O)C(=O)N[C@]1(C)CCN(C)C(=O)OCC=CCCCCC[C@@](C)(C(=O)N[C@@H](Cc2ccccc2)C(=O)N[C@@H](Cc2c[nH]c3ccccc23)C(=O)N[C@@H](Cc2c[nH]cn2)C(N)=O)NC(=O)[C@H](CCC(N)=O)NC(=O)[C@H](Cc2ccccc2)NC(=O)[C@H](C)NC(=O)[C@H](C)NC(=O)[C@H](CC(=O)O)NC(=O)[C@H](CC(=O)O)NC1=O [I-64] : what is it? 650

Reported EC50 for CC(=O)N1CCC[C@]12CC=CCCCC1(CCCC=CCCCCCC[C@@](C)(C(=O)N[C@@H](Cc3ccccc3)C(=O)N[C@@H](Cc3csc4ccccc34)C(=O)N[C@@H](C)C(N)=O)NC(=O)[C@H](CCC(N)=O)NC(=O)[C@H](Cc3ccccc3)NC(=O)[C@H](C)NC(=O)[C@H](C)NC(=O)[C@H](CC(=O)O)NC(=O)[C@H](CC(=O)O)NC1=O)NC(=O)[C@H](CCO)NC(=O)[C@H](CC(=O)O)NC2=O (stereo partly shown) : what is it? 189

Reported EC50 for CC(=O)N1CCC[C@]12CC=CCCCC1(CCCC=CCCCCCC[C@@](C)(C(=O)N[C@@H](Cc3ccccc3)C(=O)N[C@@H](Cc3c[nH]c4ccccc34)C(=O)N[C@@H](CCC(N)=O)C(N)=O)NC(=O)[C@H](C(C)C)NC(=O)[C@H](Cc3cc(F)c(F)c(F)c3)NC(=O)[C@H](C)NC(=O)[C@H](C)NC(=O)[C@H](CCC(=O)O)NC(=O)[C@H](CC(=O)O)NC1=O)NC(=O)[C@H](C)NC(=O)[C@H](CC(=O)O)NC2=O (stereo partly shown) [I-211] : what is it? 367

Reported EC50 for CC[C@H](C)[C@H](NC(=O)[C@H](CC(=O)O)NC(=O)[C@H](C)NC(C)=O)C(=O)N[C@]1(C)CCN(C)C(=O)OCC=CCCCCC[C@@](C)(C(=O)N[C@@H](Cc2ccccc2)C(=O)N[C@@H](Cc2c[nH]c3ccccc23)C(=O)N[C@@H](C)C(N)=O)NC(=O)[C@H](CCC(N)=O)NC(=O)[C@H](Cc2ccccc2)NC(=O)[C@H](C)NC(=O)[C@H](C)NC(=O)[C@H](CCC(=O)O)NC(=O)[C@H](CC(=O)O)NC1=O : what is it? 153

----------
- system: full-length beta-Catenin (Uniprot ID P35222) (Homo sapiens, UniProt P35222)
- Construct: 10 nM full-length beta-Catenin (Uniprot ID P35222)
- Sequence (P35222 whole entry): as above
- assayProcedure: Fluorescence polarization IC50 (beta-catenin / 5FAM-TCF4 10-53 competition)
- Assay type: binding
- conditions: fluorescence polarization; read-out: beta-Catenin FP IC50
Each record here notes measured IC50.
Give just the number in nM; leave the unit off.

{"compound": "CC(=O)N1CCC[C@]12CC=CCCCC1(CCCC=CCCCOC(=O)N3CC[C@@](C(=O)N[C@@H](Cc4ccccc4C(F)(F)F)C(=O)N[C@@H](Cc4csc5ccccc45)C(=O)N[C@@H](CCC(=O)N4CCOCC4)C(N)=O)(C3)NC(=O)[C@H](Cc3ccccc3)NC(=O)[C@H](Cc3ccccc3)NC(=O)[C@H](C)NC(=O)[C@H](C)NC(=O)[C@H](Cc3cccc(C(=O)O)c3)NC(=O)[C@H](CC(=O)O)NC1=O)NC(=O)[C@H](CC(C)(C)C)NC(=O)[C@H](CC(=O)O)NC2=O (some centres unmarked) [I-2543]", "unitOfMeasure": "nM", "IC50": 37}

Reported IC50 for CC(=O)N1CCC[C@]12CC=CCCCC1(CCCC=CCCCOC(=O)N3CC[C@@](C(=O)N[C@@H](Cc4ccccc4Cl)C(=O)N[C@@H](Cc4csc5ccccc45)C(=O)N[C@@H](CCC(N)=O)C(N)=O)(C3)NC(=O)[C@H](CC(C)C)NC(=O)[C@H](Cc3ccccc3)NC(=O)[C@H](C)NC(=O)[C@H](C)NC(=O)[C@H](Cc3ccc(F)c(C(=O)O)c3)NC(=O)[C@H](CC(=O)O)NC1=O)NC(=O)[C@H](CC(C)(C)C)NC(=O)[C@H](CC(=O)O)NC2=O (some centres unmarked) [I-2204] : what is it? 10
